- System: MCF10A
- experiment_notes: one-nucleolus phenotype percent effect (relative to siNT 0% and siNOL11 100%); higher = more cells with one nucleolus (ribosome biogenesis inhibition)
- particulars: 20 nM; 72 h
Item-by-item account of one-nucleolus phenotype percent effect
measured_endpoint: one-nucleolus phenotype percent effect (%)

* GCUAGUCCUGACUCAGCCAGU [hsa-miR-554] | -12.9
* CAUUACAGCACAGCCAUUCU [hsa-miR-6504-3p] | 2.85
* AGUGCCUGAGGGAGUAAGAG [hsa-miR-550a-3-5p] | 3.47
* UUGGCUGGUCUCUGCUCCGCAG [hsa-miR-6842-3p] | 19.7
* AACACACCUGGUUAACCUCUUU [hsa-miR-329] | -0.532
* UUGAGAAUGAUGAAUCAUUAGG [hsa-miR-580] | -18.3
* CUUCCAGACGCUCCGCCCCACGUCG [hsa-miR-3180-5p] | -9.39
* ACUGGACUUGGAGUCAGAAGAGUGG [hsa-miR-378c] | -8.35
* CGCACCUGCCUCUCACCCACAG [hsa-miR-6804-3p] | -33.9
* UCUGGGGAUGAGGACAGUGUGU [hsa-miR-4700-5p] | 29
* UGUUUUGAUAACAGUAAUGU [hsa-miR-2052] | 0.685
* AACAAUAUCCUGGUGCUGAGUG [hsa-miR-338-5p] | -0.375
* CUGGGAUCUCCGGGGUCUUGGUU [hsa-miR-769-3p] | 18
* ACUGCUGAGCUAGCACUUCCCG [hsa-miR-93-3p] | 0.758
* AAAUAUGAUGAAACUCACAGCUGAG [hsa-miR-4517] | 0.779
* GCUCUGACGAGGUUGCACUACU [hsa-miR-301b-5p] | -22.6
* UAGCCUUCAGAUCUUGGUGUUUU [hsa-miR-3614-3p] | 28.6
* UACCACAGGGUAGAACCACGG [hsa-miR-140-3p] | -23.5
* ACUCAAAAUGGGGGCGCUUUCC [hsa-miR-373-5p] | -11.8
* UAUAAAAUGAGGGCAGUAAGAC [hsa-miR-3163] | -19.2
* UACGCGCAGACCACAGGAUGUC [hsa-miR-3939] | -5.45
* UACUUUUCUAGGUUGUUGGGG [hsa-miR-5003-3p] | 55.6
* AAGAGAACUGAAAGUGGAGCCU [hsa-miR-3925-5p] | -13
* CCGCUUUCUGAGCUGGAC [hsa-miR-4315] | 34.8
* CCUCUCCUCCCUGUGCCCCAG [hsa-miR-6845-3p] | -13.8
* AAGAUGUGGAAAAAUUGGAAUC [hsa-miR-576-3p] | 17.9
* UAGGUAGAGUGUGAGGAGGAGGUC [hsa-miR-6831-5p] | -21
* CUAGACUGAAGCUCCUUGAGG [hsa-miR-151a-3p] | -1.52
* CUGCAGAGUUUGUACGGACCGG [hsa-miR-3678-3p] | 10.8
* GUGGGGGAGAGGCUGUC [hsa-miR-1275] | 43
* UCAGCAGGCAGGCUGGUGCAGC [hsa-miR-3619-5p] | 56.3
* AAGCUUUUUGCUCGAAUUAUGU [hsa-miR-208b-5p] | -24.2
* UUCAUUCGGCUGUCCAGAUGUA [hsa-miR-1298] | -24.3
* CCAAUUACCACUUCUUU [hsa-miR-4275] | -17.6
* AUGCGGACCUGGGUUAGCGGAGU [hsa-miR-4754] | 47.4
* AGAGAUUGGUAGAAAUCAGGU [hsa-miR-5186] | 28.7
* AGUUUUGCAUAGUUGCACUACA [hsa-miR-19a-5p] | -20
* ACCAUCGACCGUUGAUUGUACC [hsa-miR-181a-3p] | -7.58
* GGCGCGCCCAGCUCCCGGGCU [hsa-miR-4783-5p] | -16.4
* UCUACAGUGCACGUGUCUCCAGU [hsa-miR-139-5p] | -8.78
* UAGUGGUCCUAAACAUUUCACA [hsa-miR-203b-5p] | 58.6
* UGGAGAGAGAAAAGAGACAGAAG [hsa-miR-4644] | -24.6
